Measured values drawn from ChEMBL document CHEMBL4354812 for this set.

Test system: UniProt:P14902
Sequence (P14902 whole entry): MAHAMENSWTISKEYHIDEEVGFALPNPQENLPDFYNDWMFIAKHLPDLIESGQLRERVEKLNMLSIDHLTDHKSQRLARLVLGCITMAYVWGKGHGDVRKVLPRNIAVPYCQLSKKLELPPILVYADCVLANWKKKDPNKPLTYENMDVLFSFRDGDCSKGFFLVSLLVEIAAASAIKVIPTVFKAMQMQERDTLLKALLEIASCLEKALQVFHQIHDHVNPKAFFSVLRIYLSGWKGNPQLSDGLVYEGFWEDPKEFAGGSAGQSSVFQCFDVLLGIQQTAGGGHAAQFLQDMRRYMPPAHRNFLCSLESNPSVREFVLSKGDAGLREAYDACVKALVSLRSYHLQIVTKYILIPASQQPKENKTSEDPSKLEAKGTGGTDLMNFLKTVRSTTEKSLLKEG
Protocol: Uncompetitive inhibition of recombinant human IDO1 expressed in Escherichia coli BL21 cells assessed inhibition constant using varying concentration of L-tryptophan as substrate by Dixon plot analysis
Condition info: read-out: Ki
Answer each item with its documented Ki.
Don't forget the unit after the value.

Request: Ki, test system UniProt:P14902, entry `CN1CCN(c2ccc3nc4n(c(=O)c3c2)-c2ccccc2C4=O)CC1`
7.57 µM

Report Ki for `O=C1c2cc(F)ccc2-n2c1nc1ccc(N3CCNCC3)cc1c2=O` tested on UniProt:P14902.
6.08 µM

Lab request: please report Ki under test system UniProt:P14902 for `CN(C)c1ccc2nc3n(c(=O)c2c1)-c1ccc(F)cc1C3=O`
8.82 µM

Could you share what Ki was measured for `O=C1c2cc(F)ccc2-n2c1nc1ccc(N3CCCCC3)cc1c2=O` , tested on UniProt:P14902?
4.34 µM

---

Test system: Tryptophan 2,3-dioxygenase (Homo sapiens, UniProt P48775)
Sequence (P48775 whole entry): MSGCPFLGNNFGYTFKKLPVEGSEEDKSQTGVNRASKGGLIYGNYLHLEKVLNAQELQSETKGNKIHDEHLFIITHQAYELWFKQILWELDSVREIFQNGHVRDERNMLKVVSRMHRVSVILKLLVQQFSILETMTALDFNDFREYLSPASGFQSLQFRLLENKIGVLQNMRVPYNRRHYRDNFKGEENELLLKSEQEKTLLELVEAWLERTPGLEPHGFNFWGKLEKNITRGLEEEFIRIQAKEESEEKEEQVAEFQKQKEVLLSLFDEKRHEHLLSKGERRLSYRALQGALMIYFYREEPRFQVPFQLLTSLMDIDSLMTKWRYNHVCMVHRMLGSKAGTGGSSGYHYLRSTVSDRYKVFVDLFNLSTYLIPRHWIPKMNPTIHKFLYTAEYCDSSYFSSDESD
Protocol: Inhibition of human TDO transfected in HEK293 cells assessed as reduction in kynurenine production using L-tryptophan as substrate incubated for 12 hrs
Assay type: cell-based
Quantity: pIC50
Units for pIC50: none; it is -log10 of a concentration expressed in mol/L.

Can you look up the measured pIC50 of `O=C1c2cc(F)ccc2-n2c1nc1ccc(N3CCCCC3)cc1c2=O` for me?
5.43

Which measured pIC50 value corresponds to `O=C1c2cc(F)ccc2-n2c1nc1ccc(N3CCOCC3)cc1c2=O` ?
6.30

Can you share its pIC50? I mean this compound: `O=C1c2cc(F)ccc2-n2c1nc1ccc(N3CCNCC3)cc1c2=O`
6.54

Return reported pIC50; argument: `CN(C)Cc1ccc2nc3n(c(=O)c2c1)-c1ccc(F)cc1C3=O`
7.22

Form field: reported pIC50 of `CN1CCN(c2ccc3nc4n(c(=O)c3c2)-c2ccccc2C4=O)CC1`
6.33

Would you mind telling me what pIC50 value was observed for `CN1CCN(Cc2ccc3nc4n(c(=O)c3c2)-c2ccc(F)cc2C4=O)CC1` ?
7.05

Requested read-out: pIC50. Entry: `O=C1c2cc(F)ccc2-n2c1nc1ccc(CN3CCOCC3)cc1c2=O`
7.15

Which pIC50 value is on record for `CN1CCN(Cc2ccc3nc4n(c(=O)c3c2)-c2ccccc2C4=O)CC1` ?
6.74

Look up pIC50 for this compound: `CC(C)(C)OC(=O)N1CCN(Cc2ccc3nc4n(c(=O)c3c2)-c2ccc(F)cc2C4=O)CC1`
7.15

Suppose we examine the compound `CN(C)c1ccc2nc3n(c(=O)c2c1)-c1ccc(F)cc1C3=O` ; what pIC50 value has been reported?
6.57

Reported pIC50, compound `CN1CCN(c2ccc3nc4n(c(=O)c3c2)-c2ccc(F)cc2C4=O)CC1` : ____
6.60

Fill in the blank: the reported pIC50 of `O=C1c2cc(F)ccc2-n2c1nc1ccc(CN3CCNCC3)cc1c2=O` is ____.
7.05

---

For each entry below, report its Ki value.
Test system: Tryptophan 2,3-dioxygenase (Homo sapiens)
Protocol: Mixed uncompetitive inhibition of recombinant human TDO expressed in Escherichia coli BL21 (DE3) assessed as inhibition constant using varying concentration of L-tryptophan as substrate by Dixon plot analysis

Value lookup for Ki; key = `CN(C)Cc1ccc2nc3n(c(=O)c2c1)-c1ccc(F)cc1C3=O`
90 nM

Item under review: `CC(C)(C)OC(=O)N1CCN(Cc2ccc3nc4n(c(=O)c3c2)-c2ccc(F)cc2C4=O)CC1` . Reported Ki?
130 nM

Any idea what Ki was measured for `CN1CCN(Cc2ccc3nc4n(c(=O)c3c2)-c2ccccc2C4=O)CC1` ?
420 nM

Quick one: Ki for `O=C1c2cc(F)ccc2-n2c1nc1ccc(N3CCNCC3)cc1c2=O` ?
670 nM

Param item = `CN1CCN(c2ccc3nc4n(c(=O)c3c2)-c2ccc(F)cc2C4=O)CC1` ; retrieve measured Ki.
170 nM
